# subject.of.test: bovine serum albumin (BSA) (Bos taurus)
# Sequence (P02769 25-607): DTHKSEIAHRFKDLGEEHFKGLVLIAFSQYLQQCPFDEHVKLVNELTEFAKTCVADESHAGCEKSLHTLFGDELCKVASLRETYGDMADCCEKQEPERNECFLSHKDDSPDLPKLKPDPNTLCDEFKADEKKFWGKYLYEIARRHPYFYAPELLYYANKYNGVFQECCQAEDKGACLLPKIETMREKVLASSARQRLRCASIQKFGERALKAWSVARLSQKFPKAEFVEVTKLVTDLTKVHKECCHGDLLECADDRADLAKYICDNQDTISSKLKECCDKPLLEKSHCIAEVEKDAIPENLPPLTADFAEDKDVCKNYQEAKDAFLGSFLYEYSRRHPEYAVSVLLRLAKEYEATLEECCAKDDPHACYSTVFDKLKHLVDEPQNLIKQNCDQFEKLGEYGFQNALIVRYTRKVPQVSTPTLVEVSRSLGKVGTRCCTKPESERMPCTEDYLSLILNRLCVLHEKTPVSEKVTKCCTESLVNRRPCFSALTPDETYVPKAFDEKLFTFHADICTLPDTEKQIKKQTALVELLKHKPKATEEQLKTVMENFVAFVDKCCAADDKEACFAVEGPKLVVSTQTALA
# protocol: biochemical
# Format: binding
pKd: −log10 of the molar value.
pKd listing for selected compounds.
property: pKd

compound=Cc1ccc(C(=O)O)cc1 property=pKd observed_value=4.15
compound=N#Cc1ccccc1C(=O)O property=pKd observed_value=4.41
compound="O=C(O)c1ccc(O)cc1O [2,4-dihydroxybenzoic acid]" property=pKd observed_value=4.49
compound=N#Cc1cccc(C(=O)O)c1 property=pKd observed_value=4.59
compound=O=C(O)c1ccccc1[N+](=O)[O-] property=pKd observed_value=4.32
compound=Nc1cccc(C(=O)O)c1 property=pKd observed_value=4.15
compound="O=C(O)c1cccc(O)c1 [3-hydroxybenzoic acid]" property=pKd observed_value=4.28
compound=O=C(O)c1cccc(Cl)c1 property=pKd observed_value=4.76
compound=O=C(O)c1ccccc1 property=pKd observed_value=4.28
compound=O=C(O)c1ccc([N+](=O)[O-])cc1 property=pKd observed_value=4.91
compound=O=C(O)c1ccccc1Br property=pKd observed_value=4.36
compound="O=C(O)c1ccc(O)cc1 [4-hydroxybenzoic acid]" property=pKd observed_value=4.00

###

# subject.of.test: bovine serum albumin (BSA) (Bos taurus)
# protocol: biochemical
# Assay type: binding
# condition.info: 298 K; phosphate buffer pH 7.4, 0.05 M; BSA about 1 µM; 1:1 model; standard state 1 M; value is K multiplied by 10^−4; read-out: K∙10^−4 (binding constant with BSA, final corrected value) (converted)
property: Kd

given_smiles=O=C(O)c1ccc(I)cc1 property=Kd observed_value="24.4 µM"
given_smiles=O=C(O)c1ccc(Br)cc1 property=Kd observed_value="18.5 µM"
given_smiles=O=C(O)c1cccc(I)c1 property=Kd observed_value="19.6 µM"
given_smiles=O=C(O)c1ccccc1I property=Kd observed_value="30.3 µM"
given_smiles=O=C(O)c1cccc(Br)c1 property=Kd observed_value="28.6 µM"
